These entries and their values trace back to patent US20190071480A1.

- target-entity: T1, extracellular domain of activin receptor type IIB (ActRIIBecd), biotinylated (Homo sapiens (Human), UniProt Q13705 27-117, amino-biotinylated with amine-PEG3-Biotin)
- T1 construct: immobilised on a streptavidin-coated sensor chip; also called biotinylated ActRIIBecd; extracellular domain of ActRIIB
- T1 sequence: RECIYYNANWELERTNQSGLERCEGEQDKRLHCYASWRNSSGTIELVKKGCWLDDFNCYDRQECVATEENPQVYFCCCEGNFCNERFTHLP
- assay-procedure: Mean KD column of Table 5; method not restated (BIAcore as Example 5); species also listed in Table 4
pKd listing for selected binders.
// field semantics: pKd = negative decimal log of concentration (mol/L)

[
  {
    "binder": "SEQ ID NO: 254, cysteine pairs C23-C58^a (designed binder, disulfides C23-C58 (intra)) VDFKDVGWNDHAVAPPGYHAFYCHGECPFPLADHLNSDNHAIVQTKVNSVNSKDPKACCVPTELSAPSPLYLDENEKPVLKNYQDMVVHGCGCR",
    "pKd": 7.35
  }
]

Problem: Can you share its pKd? I mean this binder: SEQ ID NO: 206, cysteine pairs C8-C71^a (designed binder, disulfides C8-C71 (intra)) NSKIPKACCVPTELSAISMLYLDENEKVVLKNYQDMVVEGCGCRVDFSDVGWNDWIVAPPGYHAFYCHGECPFPLADHLNSTNHAIVQTLVNSV
Solution: 7.30
